The measured values listed here are drawn from patent US20170210813A1.

target: T1, hPDGFRb.mmh (human, UniProt P09619 33-531); assay: blocking ELISA, biot-hPDGFRb.mmh to coated PDGF-BB
T1 construct: Soluble monomeric construct; also called soluble human PDGFR-beta.mmh
T1 sequence (P09619 other isoform, or with tags, fused parts or gaps): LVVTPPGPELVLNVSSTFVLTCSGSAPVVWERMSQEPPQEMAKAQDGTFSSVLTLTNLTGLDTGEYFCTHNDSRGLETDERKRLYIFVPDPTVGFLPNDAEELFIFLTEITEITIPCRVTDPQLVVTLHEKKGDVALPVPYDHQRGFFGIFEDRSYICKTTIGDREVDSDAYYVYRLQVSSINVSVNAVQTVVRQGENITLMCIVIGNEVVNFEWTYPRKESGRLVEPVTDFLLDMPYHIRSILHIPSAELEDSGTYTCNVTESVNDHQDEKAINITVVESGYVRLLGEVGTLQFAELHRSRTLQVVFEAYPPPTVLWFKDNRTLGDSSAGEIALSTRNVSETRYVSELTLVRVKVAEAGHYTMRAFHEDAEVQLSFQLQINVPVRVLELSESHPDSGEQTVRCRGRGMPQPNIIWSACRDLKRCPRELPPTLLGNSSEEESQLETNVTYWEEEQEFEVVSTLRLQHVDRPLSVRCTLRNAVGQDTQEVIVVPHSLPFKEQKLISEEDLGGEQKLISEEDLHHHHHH

| BINDER | IC50 [nM] |
| --- | --- |
| H4H3095S (antibody, human IgG4, V domains shown, human IgG4 Fc (H4H prefix)) VH: EVQLVESGGGLVQPGGSLRLSCGASGFTFSSYWMTWVRQAPGKGLEWVGNINQDGSEKYSVDSVKGRFTISRDNAKNSLYLQMNRVRAEDTAVYYCSRDLVPPRQGDNYYYFGMDVWGLGTTVTVSS VL: DIQMTQSPSTLSASVGDRVIITCRASQNINNWLAWYQQQPGKAPKLLIYEASSLESGVPSRFSGSGSGTEFTLTIGSLQPDDFATYYCQHYNSYSRTFGQGTKVDIK | 1.4 |
| H4H3103S (antibody, human IgG4, V domains shown, human IgG4 Fc (H4H prefix)) VH: EVQLLQSGGGLVQPGGSLRLSCAASGFTFSHYWMSWVRQGPGKGLEWVATIKKDGSESYYVDSVRGRFTISRDNAKNSLYLQMNSLRTEDTAVYYCARDIVTPNVGYYFGMDVWGQGTTVTVSS VL: DIQMTQSPSTLSASVGDRVTITCRASQSISSWLSWYQQKPGKAPKLLIYMASTLESGVPSRFSGSGSGTDFTLTITSLQPDDFATYYCQQSNSYSRTFGHGTKLEIK | 0.24 |
| H4H3096S (antibody, human IgG4, V domains shown, human IgG4 Fc (H4H prefix)) VH: EVQLVQSGGSLVQPGGSLRLSCTASGFTFSSYWMSWVRQAPGKGLEWVANIQQDESEKYYVDSVKGRFSISRDNAKKSLYLQMNSLRAEDTAVYFCARDLVPPRQGDYYHYFGMDVWGQGTLVTVSS VL: AIRMTQSPSTLSASVGDRVTITCRASQSISDWLAWYQQKPGKAPNLLIYKASSLESGVPSRFSGSGSGTEFTLTISGLQPDDFATYYCQQYNSYSRTFGQGTKLEIKR | 0.18 |
